- System: Sulfonylurea receptor 1, Kir6.2 (Homo sapiens, UniProt Q09428+Q14654)
- Sequence (Q14654 whole entry): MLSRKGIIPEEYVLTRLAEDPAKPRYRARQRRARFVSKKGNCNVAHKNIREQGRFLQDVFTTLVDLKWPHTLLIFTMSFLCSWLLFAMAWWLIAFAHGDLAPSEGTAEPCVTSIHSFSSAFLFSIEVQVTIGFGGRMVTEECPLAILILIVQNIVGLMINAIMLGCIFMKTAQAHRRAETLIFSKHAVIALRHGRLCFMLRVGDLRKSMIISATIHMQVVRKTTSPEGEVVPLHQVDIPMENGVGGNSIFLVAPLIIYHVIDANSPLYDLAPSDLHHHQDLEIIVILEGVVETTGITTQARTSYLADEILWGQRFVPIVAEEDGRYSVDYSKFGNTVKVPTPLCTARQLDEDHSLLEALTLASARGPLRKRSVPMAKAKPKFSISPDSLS
- Sequence (Q09428 whole entry): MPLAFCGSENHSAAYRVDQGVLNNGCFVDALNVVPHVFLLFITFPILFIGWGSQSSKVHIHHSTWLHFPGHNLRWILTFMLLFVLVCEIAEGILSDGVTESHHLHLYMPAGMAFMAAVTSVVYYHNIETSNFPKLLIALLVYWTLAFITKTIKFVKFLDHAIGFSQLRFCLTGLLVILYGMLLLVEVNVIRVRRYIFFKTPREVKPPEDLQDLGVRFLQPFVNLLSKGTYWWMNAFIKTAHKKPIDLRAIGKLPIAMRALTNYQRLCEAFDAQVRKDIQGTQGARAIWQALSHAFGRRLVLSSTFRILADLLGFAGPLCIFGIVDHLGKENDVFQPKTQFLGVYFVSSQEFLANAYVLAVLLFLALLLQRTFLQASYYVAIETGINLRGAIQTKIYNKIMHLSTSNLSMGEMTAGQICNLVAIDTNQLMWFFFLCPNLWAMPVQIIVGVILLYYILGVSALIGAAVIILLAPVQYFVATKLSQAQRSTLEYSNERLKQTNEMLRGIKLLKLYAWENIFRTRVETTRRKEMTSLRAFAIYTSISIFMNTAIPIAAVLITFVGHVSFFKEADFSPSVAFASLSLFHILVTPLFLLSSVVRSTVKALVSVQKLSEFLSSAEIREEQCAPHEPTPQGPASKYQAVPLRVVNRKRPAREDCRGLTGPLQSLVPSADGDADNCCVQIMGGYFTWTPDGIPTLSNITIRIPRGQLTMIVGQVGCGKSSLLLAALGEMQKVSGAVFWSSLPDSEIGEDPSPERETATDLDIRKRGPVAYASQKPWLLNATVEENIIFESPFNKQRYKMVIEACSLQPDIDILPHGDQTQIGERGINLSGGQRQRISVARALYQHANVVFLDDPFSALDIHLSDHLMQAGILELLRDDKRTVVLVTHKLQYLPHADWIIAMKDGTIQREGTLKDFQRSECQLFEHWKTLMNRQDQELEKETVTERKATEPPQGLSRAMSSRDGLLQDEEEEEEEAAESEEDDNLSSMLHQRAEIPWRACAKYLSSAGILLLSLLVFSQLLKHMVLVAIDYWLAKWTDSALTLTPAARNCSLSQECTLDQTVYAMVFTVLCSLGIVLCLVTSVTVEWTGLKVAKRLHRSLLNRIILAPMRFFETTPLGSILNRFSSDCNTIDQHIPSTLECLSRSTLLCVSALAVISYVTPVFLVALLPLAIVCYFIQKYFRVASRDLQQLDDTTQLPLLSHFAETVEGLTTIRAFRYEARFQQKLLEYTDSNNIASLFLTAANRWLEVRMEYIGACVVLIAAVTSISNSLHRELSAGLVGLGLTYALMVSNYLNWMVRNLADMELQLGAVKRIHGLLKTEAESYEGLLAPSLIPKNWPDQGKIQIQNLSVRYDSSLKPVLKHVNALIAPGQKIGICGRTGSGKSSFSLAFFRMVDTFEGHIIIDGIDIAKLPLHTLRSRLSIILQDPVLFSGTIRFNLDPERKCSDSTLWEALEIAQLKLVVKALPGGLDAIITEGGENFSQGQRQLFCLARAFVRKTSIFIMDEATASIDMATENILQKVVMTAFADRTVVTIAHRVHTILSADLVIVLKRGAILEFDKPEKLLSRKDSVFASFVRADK
- Assay Text: Displacement of [3H]glibenclamide from human Kir6.2/SUR1 expressed in HEK293 cells
- Format: cell-based
Endpoint Name: IC50 (µM)
Numeric answer only, unit µM assumed.

Req: Look up and report measured IC50 for this entry: "CC(C)(NC1=NS(=O)(=O)c2sc(Cl)cc2N1)c1ccccc1"
Resp: 360

* * *

- Assay Text: Half life in Sprague-Dawley rat at 2.19 mg/kg, po
- Type: ADME, organism-based
- Design: dose 2.19 mg/kg, route oral
- Run Conditions: in vivo
Endpoint Name: half-life (min)
Numeric answer only, unit min assumed.

Req: Look up and report measured half-life for this entry: "O=S1(=O)N=C(NC2(C(F)(F)F)CC2)Nc2cc(Cl)sc21"
Resp: 330

* * *

- Assay Text: Tmax in Sprague-Dawley rat at 2 mg/kg, po or 0.5 mg/kg, iv
- Type: ADME, organism-based
- Run Conditions: in vivo
Endpoint Name: Tmax (h)
Numeric answer only, unit h assumed.

Req: Look up and report measured Tmax for this entry: CC1=Nc2ccc(Cl)cc2S(=O)(=O)N1 [DIAZOXIDE]
Resp: 1

* * *

- Assay Text: Cmax in Sprague-Dawley rat at 2.19 mg/kg, po
- Assay type: ADME, organism-based
- Parameters: dose 2.19 mg/kg, route oral
- Run Conditions: in vivo
Endpoint Name: Cmax (ng/mL)
Numeric answer only, unit ng/mL assumed.

Req: Look up and report measured Cmax for this entry: "O=S1(=O)N=C(NC2(C(F)(F)F)CC2)Nc2cc(Cl)sc21"
Resp: 533

* * *

- Assay Text: Half life in Sprague-Dawley rat at 2.3 mg/kg, po
- Format: ADME, organism-based
- Set-up: dose 2.3 mg/kg, route oral
- Run Conditions: in vivo
Endpoint Name: half-life
Output should be the measured figure followed by the unit it is expressed in.

Req: Look up and report measured half-life for this entry: "CC(C)(NC1=NS(=O)(=O)c2sc(Cl)cc2N1)c1ccccc1"
Resp: 52 min

* * *

- Assay Text: Clearance in Sprague-Dawley rat at 1.89 mg/kg, po or 0.89 mg/kg, iv
- Assay type: ADME, organism-based
- Run Conditions: in vivo
Endpoint Name: clearance (mL/min/kg)
Numeric answer only, unit mL/min/kg assumed.

Req: Look up and report measured clearance for this entry: CC1(NC2=NS(=O)(=O)c3sc(Cl)cc3N2)CC1 [TIFENAZOXIDE]
Resp: 7.02

* * *

- Assay Text: Cmax in Sprague-Dawley rat at 2.48 mg/kg, po
- Format: ADME, organism-based
- Set-up: dose 2.48 mg/kg, route oral
- Run Conditions: in vivo
Endpoint Name: Cmax
Output should be the measured figure followed by the unit it is expressed in.

Req: Look up and report measured Cmax for this entry: "CC1(NC2=NS(=O)(=O)c3sc(Br)cc3N2)CC1"
Resp: 885 ng/mL

* * *

- Test system: Beta-TC6
- Assay Text: Inhibition of glucose-stimulated insulin release in beta-TC6 cells at 10 uM
- Assay type: functional, Mus musculus
Assign class by Efficacy: not lower than 70% means Satisfied; lower than 70% means Not satisfied.

Req: Hello, I need to know if CC1(NC2=NS(=O)(=O)c3sc(Cl)cc3N2)CC1 [TIFENAZOXIDE] has measured Efficacy not below 70%. Thanks!
Resp: Satisfied

Req: Hello, I need to know if "CC1(NC2=NS(=O)(=O)c3sc(Cl)cc3N2)CCC1" has measured Efficacy not below 70%. Thanks!
Resp: Satisfied

Req: Hello, I need to know if "C[C@H](NC1=NS(=O)(=O)c2sc(Cl)cc2N1)c1ccccc1" has measured Efficacy not below 70%. Thanks!
Resp: Not satisfied

Req: Hello, I need to know if "O=S1(=O)NC(NCc2ccccc2)=Nc2cc(Cl)sc21" has measured Efficacy not below 70%. Thanks!
Resp: Not satisfied

Values compiled from ChEMBL document CHEMBL1138902.
